FYI, the data here is from patent US20200123115A1.

Assayed Target: Human norepinephrine transporter (NET) (Homo sapiens, UniProt P23975)
Sequence (P23975 whole entry): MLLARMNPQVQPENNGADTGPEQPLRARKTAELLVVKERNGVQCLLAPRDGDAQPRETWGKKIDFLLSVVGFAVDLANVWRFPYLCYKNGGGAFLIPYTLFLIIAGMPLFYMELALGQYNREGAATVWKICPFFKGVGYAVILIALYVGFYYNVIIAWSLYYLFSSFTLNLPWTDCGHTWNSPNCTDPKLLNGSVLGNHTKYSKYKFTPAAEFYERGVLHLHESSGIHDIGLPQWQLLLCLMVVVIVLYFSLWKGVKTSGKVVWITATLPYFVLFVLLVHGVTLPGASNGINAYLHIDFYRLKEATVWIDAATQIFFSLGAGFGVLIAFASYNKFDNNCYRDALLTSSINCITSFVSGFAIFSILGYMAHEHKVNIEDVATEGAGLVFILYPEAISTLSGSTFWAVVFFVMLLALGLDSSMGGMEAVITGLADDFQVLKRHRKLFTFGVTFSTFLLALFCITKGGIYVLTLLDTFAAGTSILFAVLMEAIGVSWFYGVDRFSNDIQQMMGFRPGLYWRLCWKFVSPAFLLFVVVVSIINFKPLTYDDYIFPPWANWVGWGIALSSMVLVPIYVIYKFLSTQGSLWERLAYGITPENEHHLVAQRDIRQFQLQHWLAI
Assay Method Text: Binding assay to human norepinephrine transporter (NET), [3H]-Nisoxetin
Experimental Setup: human NET enriched membranes, 5 nM [3H]-Nisoxetin
Property Measured: Ki

Example results:
[
  {
    "Compound": "CNCCC(Oc1cccc(-c2ccncc2C)c1)c1cccs1 (stereo not drawn)",
    "Property Measured": "Ki",
    "Reading": "500 to 1000 nM"
  },
  {
    "Compound": "CNCC[C@H](Oc1cccc(-c2ccnc(N[C@@H]3CCNC3)n2)c1)c1ccccc1",
    "Property Measured": "Ki",
    "Reading": "500 to 1000 nM"
  },
  {
    "Compound": "CNCCC(Oc1cccc(-c2ccnc(C)c2)c1)c1cccs1 (stereo not drawn)",
    "Property Measured": "Ki",
    "Reading": "100 to 500 nM"
  },
  {
    "Compound": "CNCC[C@H](Oc1cccc(-c2ccnc(N(C)C)n2)c1)c1ccccc1",
    "Property Measured": "Ki",
    "Reading": "< 100 nM"
  },
  {
    "Compound": "CCNc1nccc(-c2cccc(O[C@@H](CCNC)c3ccccc3)c2)n1",
    "Property Measured": "Ki",
    "Reading": "100 to 500 nM"
  },
  {
    "Compound": "CNCC[C@H](Oc1cccc(-c2ccnc(N3CCNCC3)n2)c1)c1ccccc1",
    "Property Measured": "Ki",
    "Reading": "≥ 1000 nM"
  },
  {
    "Compound": "CNCCC(Oc1cccc(-c2ccnc(OC)n2)c1)c1ccccc1 (stereo not drawn)",
    "Property Measured": "Ki",
    "Reading": "< 100 nM"
  },
  {
    "Compound": "CNCCC(Oc1cccc(-c2cnc(OC)nc2)c1)c1cccs1 (stereo not drawn)",
    "Property Measured": "Ki",
    "Reading": "≥ 1000 nM"
  },
  {
    "Compound": "CNCC[C@@H](Oc1cccc(-c2ccnc(SC)n2)c1)c1ccccc1",
    "Property Measured": "Ki",
    "Reading": "< 100 nM"
  },
  {
    "Compound": "CNCCC(Oc1cccc(-c2ccnc(C(F)(F)F)c2)c1)c1cccs1 (stereo not drawn)",
    "Property Measured": "Ki",
    "Reading": "100 to 500 nM"
  }
]

Form field Ki, entry CNCC[C@H](Oc1cccc(-c2ccnc(N)n2)c1)c1ccccc1 : 100 to 500 nM

Form field Ki, entry CNCC[C@H](Oc1cccc(-c2ccnc(N3CCN(C)CC3)n2)c1)c1ccccc1 : ≥ 1000 nM

Form field Ki, entry CNCC[C@H](Oc1cccc(-c2ccnc(C)n2)c1)c1ccccc1 : 100 to 500 nM

Form field Ki, entry CNCC[C@@H](Oc1cccc(-c2ccnc(C)n2)c1)c1ccccc1 : 500 to 1000 nM

Form field Ki, entry CNCC[C@@H](Oc1cccc(-c2ccnc(N[C@@H]3CCNC3)n2)c1)c1ccccc1 : ≥ 1000 nM

* * *

Assayed Target: Human α2δ-1 subunit of Cav2.2 calcium channel (Homo sapiens)
Sequence (P54289 25-1103): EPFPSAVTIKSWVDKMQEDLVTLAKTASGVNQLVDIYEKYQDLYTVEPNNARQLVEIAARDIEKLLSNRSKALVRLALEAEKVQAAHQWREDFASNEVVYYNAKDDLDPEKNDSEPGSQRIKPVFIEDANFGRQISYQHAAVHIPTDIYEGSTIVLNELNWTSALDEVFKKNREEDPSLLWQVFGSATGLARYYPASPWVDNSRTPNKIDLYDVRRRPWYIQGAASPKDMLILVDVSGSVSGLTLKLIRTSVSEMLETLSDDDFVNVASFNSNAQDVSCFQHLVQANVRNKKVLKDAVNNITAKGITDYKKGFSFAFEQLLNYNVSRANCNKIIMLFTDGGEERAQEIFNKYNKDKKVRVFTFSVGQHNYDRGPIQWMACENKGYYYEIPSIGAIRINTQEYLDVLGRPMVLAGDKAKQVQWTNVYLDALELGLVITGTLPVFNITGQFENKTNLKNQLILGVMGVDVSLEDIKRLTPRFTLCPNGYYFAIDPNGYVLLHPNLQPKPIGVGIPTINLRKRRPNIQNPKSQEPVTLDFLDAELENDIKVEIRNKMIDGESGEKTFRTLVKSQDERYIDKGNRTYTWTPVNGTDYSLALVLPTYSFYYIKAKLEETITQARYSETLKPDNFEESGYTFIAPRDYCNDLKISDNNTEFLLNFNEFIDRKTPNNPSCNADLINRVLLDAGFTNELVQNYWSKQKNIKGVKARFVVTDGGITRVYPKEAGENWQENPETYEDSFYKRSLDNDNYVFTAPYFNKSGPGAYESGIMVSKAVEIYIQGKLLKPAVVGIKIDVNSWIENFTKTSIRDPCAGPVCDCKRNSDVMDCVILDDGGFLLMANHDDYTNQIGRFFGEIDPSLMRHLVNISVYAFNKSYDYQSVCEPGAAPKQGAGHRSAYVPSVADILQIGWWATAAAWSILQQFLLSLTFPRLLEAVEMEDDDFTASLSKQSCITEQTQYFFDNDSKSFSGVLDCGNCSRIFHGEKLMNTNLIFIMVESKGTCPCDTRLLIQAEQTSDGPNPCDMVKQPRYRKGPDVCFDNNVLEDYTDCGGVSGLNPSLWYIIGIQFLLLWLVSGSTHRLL
Assay Method Text: Human α2δ-1 subunit of Cav2.2 calcium channel assay, [3H]-Gabapentin binding
Experimental Setup: human α2δ-1 enriched membranes, 15 nM [3H]-Gabapentin
Property Measured: Ki

[
  {
    "Molecule": "CNCC[C@H](Oc1cccc(-c2ccnc(SC)n2)c1)c1ccccc1 [Example 5]",
    "Property Measured": "Ki",
    "Reading": "0.5 to 5 µM"
  },
  {
    "Molecule": "CNCC[C@H](Oc1cccc(-c2ccnc(N[C@@H]3CCNC3)n2)c1)c1ccccc1 [Example 36]",
    "Property Measured": "Ki",
    "Reading": "0.5 to 5 µM"
  },
  {
    "Molecule": "CNCC[C@@H](Oc1cccc(-c2ccnc(C)n2)c1)c1ccccc1 [Example 7]",
    "Property Measured": "Ki",
    "Reading": "0.5 to 5 µM"
  },
  {
    "Molecule": "CNCC[C@@H](Oc1cccc(-c2ccnc(N[C@H]3CCNC3)n2)c1)c1ccccc1 [Example 34]",
    "Property Measured": "Ki",
    "Reading": "0.5 to 5 µM"
  },
  {
    "Molecule": "CNCCC(Oc1cccc(-c2cc(C)nc(C)c2)c1)c1cccs1 (stereo not shown) [Example 26]",
    "Property Measured": "Ki",
    "Reading": "0.5 to 5 µM"
  },
  {
    "Molecule": "CNCCC(Oc1cccc(-c2ccncn2)c1)c1ccccc1 (stereo not shown) [Example 4]",
    "Property Measured": "Ki",
    "Reading": "0.5 to 5 µM"
  },
  {
    "Molecule": "CNCCC(Oc1cccc(-c2ccnc(C)n2)c1)c1ccccc1 (stereo not shown) [Example 2]",
    "Property Measured": "Ki",
    "Reading": "0.5 to 5 µM"
  },
  {
    "Molecule": "CNCCC(Oc1cccc(-c2ccncc2)c1)c1cccs1 (stereo not shown) [Example 27]",
    "Property Measured": "Ki",
    "Reading": "0.5 to 5 µM"
  },
  {
    "Molecule": "CNCCC(Oc1cccc(-c2ccncc2C)c1)c1cccs1 (stereo not shown) [Example 24]",
    "Property Measured": "Ki",
    "Reading": "0.5 to 5 µM"
  },
  {
    "Molecule": "CNCC[C@@H](Oc1cccc(-c2ccnc(N[C@@H]3CCNC3)n2)c1)c1ccccc1 [Example 33]",
    "Property Measured": "Ki",
    "Reading": "0.5 to 5 µM"
  }
]

Form field Ki, entry CNCC[C@H](Oc1cccc(-c2ccnc(N(C)C)n2)c1)c1ccccc1 [Example 35] : ≥ 5 µM

Form field Ki, entry CNCCC(Oc1cccc(-c2ccnc(C)c2)c1)c1cccs1 (stereo not shown) [Example 19] : < 0.5 µM

* * *

Assayed Target: Human α2δ-1 subunit of Cav2.2 calcium channel (Homo sapiens)
Assay Method Text: Human α2δ-1 subunit of Cav2.2 calcium channel assay, [3H]-Gabapentin binding
Experimental Setup: human α2δ-1 enriched membranes, 15 nM [3H]-Gabapentin
pKi: −log10 of the molar value.
Property Measured: pKi

Example results:
[
  {
    "Compound": "CNCC[C@H](Oc1cccc(-c2ccnc(NC)n2)c1)c1ccccc1 [Example 30]",
    "Reading": "≤ 5.30"
  },
  {
    "Compound": "CNCC[C@H](Oc1cccc(-c2ccnc(C)n2)c1)c1ccccc1 [Example 6]",
    "Reading": "5.30 to 6.30"
  },
  {
    "Compound": "CNCCNc1nccc(-c2cccc(O[C@@H](CCNC)c3ccccc3)c2)n1 [Example 32]",
    "Reading": "5.30 to 6.30"
  },
  {
    "Compound": "CNCC[C@H](Oc1cccc(-c2ccnc(N)n2)c1)c1ccccc1 [Example 10]",
    "Reading": "5.30 to 6.30"
  },
  {
    "Compound": "CNCCC(Oc1cccc(-c2ccc(C)nn2)c1)c1ccccc1 (stereo not shown) [Example 3]",
    "Reading": "≤ 5.30"
  }
]

Form field pKi, entry CNCC[C@@H](Oc1cccc(-c2ccnc(SC)n2)c1)c1ccccc1 [Example 8] : 5.30 to 6.30

Form field pKi, entry CNCCC(Oc1cccc(-c2ccnc(C(F)(F)F)c2)c1)c1cccs1 (stereo not shown) [Example 22] : 5.30 to 6.30

Form field pKi, entry CCNc1nccc(-c2cccc(O[C@@H](CCNC)c3ccccc3)c2)n1 [Example 29] : 5.30 to 6.30
